Entry source: ChEMBL document CHEMBL1201862

Test system: ACHN
procedure.details: NCI tumour cell line growth inhibition, 48 h
Active and inactive are the calls of the source. Rule as the data show it: active = GI50 up to about 1.1 µM and inactive = higher.
endpoint.label: GI50

[[record]]
compound = "COC(=O)CC(C(C(=O)OCc1ccccc1)C(C)O)N1C(=O)OCC1c1ccccc1 (configuration not stated)"
endpoint_label = "GI50"
result = "63.2 µM (inactive)"

[[record]]
compound = "Cn1c(=O)c2[nH]c(-n3nc(-c4ccccc4)cc3N)nc2n(C)c1=O"
endpoint_label = "GI50"
result = "3.66 µM (inactive)"


State recorded GI50 for all listed compounds.
1. CNC(=O)OCc1nc([S+](C)[O-])n(C)c1COC(=O)NC (configuration not stated)
2. Cc1[nH]c2ccccc2c1C(=O)CC1(O)C(=O)Nc2c(Cl)cc(Cl)cc21 (configuration not stated)
3. N#C[C@]12CC3(CC[C@H]1CC1(C2)OCCO1)OCCO3
4. O=C(Nc1ccc(Cl)cc1Cl)c1c/c(=N\O)c2ccc(O)cc2o1

**A:**
1. > 24.2 µM (inactive)
2. 21.9 µM (inactive)
3. > 100 µM (inactive)
4. > 100 µM (inactive)

State recorded GI50 for all listed compounds.
1. CCOC(=O)C[n+]1cccc(C2(c3cc4ccccc4[nH]3)OCCO2)c1
2. Cc1cccc(-c2cc(=O)c3cc(C)c(C)c(C(=O)O)c3o2)c1
3. CC(C)[Si](OC1=C(C(=O)N(C)c2cccc(Cl)c2)CCCC1)(C(C)C)C(C)C
4. COc1cc(/C=C2\C[C@H]3[C@@H]4CC=C5C[C@@H](O)CC[C@]5(C)[C@H]4CC[C@]3(C)[C@H]2O)cc(OC)c1OC
5. COC(=O)C1C(C(=O)OC)C2C(=O)C3C(C(=O)OC)C(C(=O)OC)C3C(=O)C12 (configuration not stated)
6. C=C1C(OC(C)=O)CC(OC(C)=O)C2(C)C(OC(C)=O)C(OC(C)=O)C3=C(C)C(OC(=O)/C=C/c4ccccc4)CC(C(OC(C)=O)C12)C3(C)C (configuration not stated)

**A:**
> 100 µM (inactive)
> 100 µM (inactive)
16.2 µM (inactive)
6.27 µM (inactive)
> 100 µM (inactive)
35.5 µM (inactive)

* * *

Tested on: MDA-N
procedure.details: NCI tumour cell line growth inhibition, 48 h
Activity calls are given as the source filed them. Rule as the data show it: active = GI50 up to about 1.1 µM and inactive = higher.
Outcome (select one): y for active, n for inactive

[[record]]
compound = "COc1ccc2nc(/C(N)=C\\C#N)ccc2c1"
subject_of_test = "MDA-N"
class_name = "n"


**Q:** Which outcome was assigned to CCOC(=O)C1(Cc2ccc(C)cc2)Cc2ccc(C)cc2C1=O (stereo not given) in this test?
**A:** n

**Q:** Which outcome was assigned to "C=CCN1C(=O)/C(=C/c2ccc(C)cc2)N=C1SC/C=C/C" in this test?
**A:** n

**Q:** Which outcome was assigned to CC1=CC(O)C(C(O)(C(F)(F)F)C(F)(F)F)C(C)(C)C1 (stereo not given) in this test?
**A:** n

**Q:** Which outcome was assigned to "COc1cc([N+](=O)[O-])c(S(=O)(=O)O)cc1N" in this test?
**A:** n

**Q:** Which outcome was assigned to COc1ccc(NC(C)=O)cc1N1C(=O)/C(=C\c2cccc(Oc3ccccc3)c2)SC1c1ccccc1 (stereo not given) in this test?
**A:** n

**Q:** Which outcome was assigned to "CSc1[nH]nc(N)c1C(=O)Nc1ccccc1" in this test?
**A:** n

* * *

Test system: OVCAR-3
procedure.details: NCI tumour cell line growth inhibition, 48 h
Active and inactive are the calls of the source. Cut-off read from the data, not from the text of the source: active = GI50 up to about 1.1 µM and inactive = higher.
Outcome (select one): yes for active, no for inactive

[[record]]
compound = "Cc1[nH]c2ccccc2c1C(=O)CC1(O)C(=O)Nc2c(Cl)cc(Cl)cc21 (stereo not given)"
class_name = "no"

[[record]]
compound = "O=C1/C(=C/c2ccco2)N=C2Sc3c([nH]cnc3=O)N12"
class_name = "no"


**Q:** Which outcome was assigned to CC(=O)OCC1OC(O[C@@H]2C[C@H]3C(C)(C)[C@@H](OC(C)=O)CC[C@]3(C)[C@H]3CC[C@]45C[C@]4(CC[C@H]5[C@@H](C)C[C@@H](O)[C@H](O)C(C)(C)F)[C@@]32C)C(O)C(O)C1O (stereo not given in full) in this test?
**A:** no

**Q:** Which outcome was assigned to "CN/C(=N/C#N)NCc1ccccc1" in this test?
**A:** no

**Q:** Which outcome was assigned to "CCOc1cc2c(cc1O)/C(=N\N)C[C@@H]1[C@@H]2CC[C@]2(C)[C@@H](O)CC[C@@H]12" in this test?
**A:** no

**Q:** Which outcome was assigned to CCC1CCC2c3c([nH]c4ccc(C)cc34)C3C(=O)N(N(C)C)C(=O)C3C2C1 (stereo not given) in this test?
**A:** yes

**Q:** Which outcome was assigned to "O=C1Nc2cccc(C(F)(F)F)c2/C1=N/Nc1ccccc1[N+](=O)[O-]" in this test?
**A:** no

* * *

Tested on: M14
procedure.details: NCI tumour cell line growth inhibition, 48 h
Activity calls are given as the source filed them. No stated cut-off is given here; in the data, active = GI50 up to about 1.1 µM and inactive = higher.
Outcome (select one): class 1 = active, class 0 = inactive

Below, 2 compounds whose answers are already recorded.
[[record]]
compound = "Cn1cnc(N2CCCC2)c(C#N)c1=S"
subject_of_test = "M14"
class_name = "class 0"

[[record]]
compound = "CN(C(=O)c1cccs1)C(=S)N1CCN(c2ccccc2)CC1"
subject_of_test = "M14"
class_name = "class 0"


**Q:** Which outcome was assigned to "CSc1nn(C)cc2ncnc1-2" in this test?
**A:** class 0

**Q:** Which outcome was assigned to "C=C1C(OC)=C(OC)C(=O)c2[nH]c3c(OC)cc([N+](=O)[O-])cc3c21" in this test?
**A:** class 0

**Q:** Which outcome was assigned to "NC(=O)c1c(-c2ccccc2)c(-c2ccccc2)cc2c(=O)c3ccccc3[nH]c12" in this test?
**A:** class 0

* * *

Where a name gives a salt, the structure may show the parent alone.
As a worked illustration, we turn to GI50 data collected for HCT-15.

[[record]]
molecule = "CC1OC(OC2C(CO)OC(O[C@H]3CC[C@@]4(C)C(=CC[C@H]5[C@@H]6C[C@@H]7O[C@]8(CC[C@@H](C)CN8)[C@@H](C)[C@@H]7[C@@]6(C)CC[C@@H]54)C3)C(O)C2O)C(O)C(O)C1O (stereo partly drawn)"
result = "> 100 µM"


State recorded GI50 for all listed molecules.
1. O=C(N/N=C(\c1nc2ccc(Cl)cc2nc1O)C(O)c1ccccc1Cl)c1ccncc1 (stereo not drawn)
2. NCCCCN [PUTRESCINE HYDROCHLORIDE]

**A:**
1: > 100 µM; 2: > 100 µM

State recorded GI50 for all listed molecules.
1. NC(=O)CC(N)C(=O)NC(Cc1ccccc1)C(=O)NC(Cc1ccccc1)NC(=O)C(Cc1c[nH]c2ccccc12)C(=O)O (stereo not drawn)
2. O=c1cc(-c2ccccc2)oc2cc(OCCCOc3ccc4c(=O)cc(-c5ccccc5)oc4c3)ccc12
3. CC(O)c1c2c(cc3c1CC1(C3)Cc3cc4c(c(C(C)O)c3C1)CCC4)CCC2 (stereo not drawn)

**A:**
1. > 100 µM
2. > 100 µM
3. 14.8 µM

State recorded GI50 for all listed molecules.
1. CCOc1c(OC)cc(CNNc2nccs2)cc1OC
2. CNC(=O)OCc1nc([S+](C)[O-])n(C)c1COC(=O)NC (stereo not drawn)

**A:**
28 µM
> 100 µM

* * *

Test system: K562
procedure.details: NCI tumour cell line growth inhibition, 48 h
Active and inactive are the calls of the source. Rule as the data show it: active = GI50 up to about 1.1 µM and inactive = higher.
Outcome (select one): active, inactive

Below, 4 compounds whose answers are already recorded.
[[record]]
compound = "N#CC1=C(N)OC(c2cccc([N+](=O)[O-])c2)C1(C#N)C#N (stereo not given)"
class_name = "inactive"

[[record]]
compound = "CSC(=S)N/N=C(\\C)c1cccc(C)n1"
class_name = "active"

[[record]]
compound = "O=C(Nc1ccc(Cl)cc1Cl)c1c/c(=N\\O)c2ccc(O)cc2o1"
class_name = "inactive"

[[record]]
compound = "C=C(C)CCC1CC=[N+]([O-])OC1C(C)(C)C (stereo not given)"
class_name = "inactive"


Would you kindly look at the next entry?
**Q:** Which outcome was assigned to NNC(=O)N/N=C(/CC1(O)C(=O)Nc2ccc(Br)cc21)c1ccccc1 (stereo not given) in this test?
**A:** inactive

* * *

Test system: SK-OV-3
procedure.details: NCI tumour cell line growth inhibition, 48 h
The source made the active and inactive calls. No stated cut-off is given here; in the data, active = GI50 up to about 1.1 µM and inactive = higher.
Outcome (select one): active, inactive

Below, 2 compounds whose answers are already recorded.
[[record]]
compound = "O=C1C(c2ccccc2)=[N+]([O-])c2cc([N+](=O)[O-])ccc21"
class_name = "inactive"

[[record]]
compound = "CC(C)(C)c1cc(C(C)(C)C)c2c(c1O)OC(=O)CS2"
class_name = "inactive"


**Q:** Which outcome was assigned to COc1cc(C(=O)C2C(=O)c3ccccc3C2C2(O)c3ccccc3CC2C(O)c2cc(OC)c(OC)c(OC)c2)cc(OC)c1OC (stereo not given) in this test?
**A:** inactive

**Q:** Which outcome was assigned to "Cc1cc(NS(=O)(=O)c2ccc(NC(=O)c3cccc4c(NNc5ccc(S(N)(=O)=O)cc5)c5ccccc5nc34)cc2)no1" in this test?
**A:** inactive

**Q:** Which outcome was assigned to "CCCCSCc1nc2nc(Cl)c(Cl)nc2[nH]1" in this test?
**A:** inactive
